Recorded TGI for the following compounds
- Test system: U251 CNS
- assay.remarks: NCI tumour cell line growth inhibition, 48 h
Report the value in µM with no unit label.

Use the examples below as a reference point.
compound	measured.on	uom	TGI
C=C1CC[C@@H]2[C@](C)(COC(C)=O)[C@H](OC(C)=O)CC[C@@]2(C)[C@@H]1CC(Nc1ccc(S(=O)(=O)Nc2ccc(Cl)nn2)cc1)C1=CCOC1=O (stereo not given in full)	U251 CNS	µM	3.05
CC(C)Oc1c(-c2ccc(F)cc2)c(O)c2c3c1oc(=O)n3C=CC2C (stereo not given)	U251 CNS	µM	30.3
Oc1c(Cl)c(Cl)c(O)c2c1CCCC2	U251 CNS	µM	42.7

Any idea what its TGI is? The compound is `CCc1cccc(C)c1NC(=O)C1=C(C)NC(C)=C(C(=O)Nc2c(C)cccc2CC)C1c1ccc2c(c1)OCO2`
32.1

Any idea what its TGI is? The compound is COc1ccc(C2=CC(c3ccc(OC)cc3Br)N3C=CSC3=N2)cc1 (stereo not given)
14

====

- Tested on: MDA-N
- assay.remarks: NCI tumour cell line growth inhibition, 48 h
measured.quantity: TGI

Use the examples below as a reference point.
>>> print(df.to_string())
                                   compound  observed_result
0  Cc1ccc(N/C(SCc2ccccc2)=C(\C(Cl)=C(Cl)Cl)[N+](=O)[O-])c(C)c1          65.1 µM
1       CCOC(=O)NN(C(=O)OCC)c1c(C)cc(C)cc1C         > 100 µM
2  CCOP(=O)(OCC)OC1c2[nH]cc(C(=O)OCc3ccccc3)c2-c2cc(C(=O)OC)[nH]c2C1OC (stereo not given)         > 100 µM
3    O=c1oc2c(Cl)cc(Cl)cc2cc1C1=CSC2=NCCN12         > 100 µM
4                CCOC(=O)c1cccc(NC(=O)CI)c1         0.472 µM

Any idea what its TGI is? The compound is CC1C(C#N)(C#N)C(C#N)=C(N)C1(Cl)[N+](=O)[O-] (stereo not given)
21.3 µM

====

- System: SF-268 CNS
- assay.remarks: NCI tumour cell line growth inhibition, 48 h
measured.quantity: TGI (µM)
Report the value in µM with no unit label.

Use the examples below as a reference point.
>>> df
                            compound_smiles  measured_on  measured_quantity  observed_result
0  Cc1cn2c(/C=C3/C(=O)Nc4ccc(O)cc43)c(C)nc2s1   SF-268 CNS                TGI             56.8
1        COC(=O)c1cc2ccccc2c2c3c(ccc12)OCO3   SF-268 CNS                TGI              371
2  Cc1nn(C)c(COc2ccc(N3CCN(S(=O)(=O)N(C)C)CC3)cc2)c1-c1cccc2c(CCCOc3cccc4ccccc34)c(C(=O)O)n(CCN3CCOCC3)c12   SF-268 CNS                TGI             15.8

In the following, a different molecule is considered.
Any idea what its TGI is? The molecule is `COc1cc(OC)c2[nH]c3c(O)c(-c4c(C)cc5c([nH]c6c(OC)cc(OC)cc65)c4O)c(C)cc3c2c1`
15.9
